Tested on: NIH3T3
Test: Cytotoxic Profiling of Annotated Libraries Using Quantitative High-Throughput Screening (AID 1296008); note: % is set by controls: 0 for no effect and ±100 for the full control effect; nearly all actives have a fitted effect of over 60% in size
Settings: Five cell lines viability, CellTiter-Glo ATP luminescence, 48-72 h; hits give low values
Inconclusive results are not listed.
Assignment: determine reported max response for the given compounds.
Record the value in %, omitting the unit from your answer.

// max response lookup, compound = OC(c1ccccc1)(c1ccccc1)C1CCNCC1 , result: -1.52

// max response lookup, compound = Oc1ccc([C@H]2CNCc3c2ccc(O)c3O)cc1O , result: -2.59

// max response lookup, compound = O=C(O)c1nn(Cc2ccc(Cl)cc2Cl)c2ccccc12 , result: -6.41

// max response lookup, compound = CCS(=O)(=O)C(C)(C)S(=O)(=O)CC , result: -2.98

// max response lookup, compound = NC1(c2ccccc2)CCCCC1 , result: -27.2

// max response lookup, compound = CCN(CC)Cc1nccn1-c1ccc([N+](=O)[O-])cc1C(=O)c1ccccc1Cl , result: -7.47

// max response lookup, compound = COc1ccc2[nH]cc(CCN(C(C)C)C(C)C)c2c1 , result: 1.94

// max response lookup, compound = CCN(CC)CCOC(=O)C(C)(c1ccccc1)c1ccccc1 , result: 1.33

// max response lookup, compound = CCOC(=O)C1(c2ccccc2)CCN(CCc2ccc(N)cc2)CC1 , result: 2.24

// max response lookup, compound = CC(Cc1ccc2c(c1)OCO2)NO (configuration not stated) , result: 3.02

// max response lookup, compound = Cc1cccc(Cc2cnc[nH]2)c1C , result: -2.68

// max response lookup, compound = CC(C)=C[C@@H]1[C@@H](C(=O)OCc2coc(Cc3ccccc3)c2)C1(C)C , result: -1.15

// max response lookup, compound = CCC1(c2ccccc2)CCC(=O)NC1=O (configuration not stated) , result: 4.7

// max response lookup, compound = CC(C)C(Br)C(=O)NC(N)=O (configuration not stated) , result: -7.2

// max response lookup, compound = O=C(CCCCl)c1ccc(F)cc1 , result: -0.659

// max response lookup, compound = CCC1(c2cccc(O)c2)CCCCN(C)C1 (configuration not stated) , result: 2.43

// max response lookup, compound = CC(Cc1ccccc1)NCc1ccccc1Cl (configuration not stated) , result: -14.1

// max response lookup, compound = CCc1ccc(C2CCNCC2)cc1 , result: 1.66

// max response lookup, compound = COc1cc(CC(C)N)cc2c1OCO2 (configuration not stated) , result: -6.97

// max response lookup, compound = C[C@H](N)[C@H](O)c1ccc(O)c(O)c1 , result: -48.1

// max response lookup, compound = CNC(C)Cc1ccccc1OC (configuration not stated) , result: -6.74

// max response lookup, compound = CC(C)=CCN1CC[C@@]2(C)c3cc(O)ccc3C[C@@H]1[C@@H]2C , result: -2.79

// max response lookup, compound = CC1COC2(c3ccccc3Cl)c3cc(Cl)ccc3NC(=O)CN12 (configuration not stated) , result: 2.64

// max response lookup, compound = CCN(CC)C(C)C(=O)c1ccccc1 (configuration not stated) , result: -1.81

// max response lookup, compound = Nc1ccccc1C(=O)OCC(O)CO (configuration not stated) , result: -1.39

// max response lookup, compound = c1cc2c(c(N3CCNCC3)c1)OCCO2 , result: 1.17

// max response lookup, compound = C[C@]12C=CC(=O)C=C1CC[C@@H]1[C@@H]2CC[C@@]2(C)[C@H]1CC[C@]2(C)O , result: -13.6
